Assay: End-tidal gas analysis
Type: in vivo, rabbit
Conditions: Baseline
Measured parameter: EtCO2 (mmHg)
Quick reminder: number only, in mmHg, skip the unit.

* FC(F)OC(Cl)C(F)(F)F (stereo not shown) | 34
* FC(F)OC(F)C(F)(F)F (stereo not shown) | 31
* FC(F)OC(F)(F)C(F)Cl (stereo not shown) | 36

Next up:
response.value for `FCOC(C(F)(F)F)C(F)(F)F` (field: EtCO2) = 35

###

# reported HR; entries follow
Assay: Systemic hemodynamics during infarct experiment
Format: in vivo, rabbit
Conditions: Ischemia 30 min
Express the result in bpm but write the number alone.

* FC(F)OC(F)(F)C(F)Cl (stereo not shown) | 213
* FC(F)OC(Cl)C(F)(F)F (stereo not shown) | 220

For record FC(F)OC(F)C(F)(F)F (stereo not shown) the listed HR is 228

HR reported for this compound `FCOC(C(F)(F)F)C(F)(F)F` : 214

Data provenance: patent US7999011B2
